# Target under test: HuR full length (UniProt Q15717 1-326)
# Sequence (Q15717 whole entry): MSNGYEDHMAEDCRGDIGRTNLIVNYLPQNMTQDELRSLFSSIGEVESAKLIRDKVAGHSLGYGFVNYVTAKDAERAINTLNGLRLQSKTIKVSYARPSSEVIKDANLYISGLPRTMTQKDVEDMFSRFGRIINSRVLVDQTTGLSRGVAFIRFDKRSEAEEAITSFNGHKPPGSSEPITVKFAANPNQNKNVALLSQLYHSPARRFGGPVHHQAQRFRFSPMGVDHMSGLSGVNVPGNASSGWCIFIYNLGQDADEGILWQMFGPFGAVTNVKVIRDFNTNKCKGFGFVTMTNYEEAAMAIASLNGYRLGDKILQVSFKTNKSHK
# Protocol notes: competition (fluorescence polarization); displacement of 10 nM 5'-FAM RNA (N1) from 50 nM HuR; FP: 50 mM Na phosphate, 100 mM NaCl, 5 mM TCEP, pH 7.0, 384-well plate; temperature not stated; NMR conditions not in material
# Condition: protein: recombinant; (pET14b, metal chelation); single strand
pIC50: −log10 of the molar value.
Property name: pIC50

Recorded pIC50 (binder AUUUUUAUUUU (ssRNA) [unlabeled c-Fos 11-mer ARE RNA] ): ~7.40
